Assay: self-splicing fitness, log relative to wild type (ln ratio); higher = more splicing; Tetrahymena group I intron in knt gene, E. coli kanamycin selection, DiMSum; sequences stand for … in CUCUCU…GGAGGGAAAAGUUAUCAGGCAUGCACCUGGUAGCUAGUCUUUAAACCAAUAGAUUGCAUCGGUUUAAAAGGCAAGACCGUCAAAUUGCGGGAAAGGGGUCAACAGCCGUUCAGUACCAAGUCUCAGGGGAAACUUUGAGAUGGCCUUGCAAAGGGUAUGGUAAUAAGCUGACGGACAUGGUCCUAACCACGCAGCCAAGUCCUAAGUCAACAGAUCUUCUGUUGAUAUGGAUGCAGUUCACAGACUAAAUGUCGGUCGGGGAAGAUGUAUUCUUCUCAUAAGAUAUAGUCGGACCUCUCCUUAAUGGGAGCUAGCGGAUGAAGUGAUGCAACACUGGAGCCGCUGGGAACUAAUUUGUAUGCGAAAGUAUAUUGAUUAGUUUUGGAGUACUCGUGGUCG;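 also: selection with 25 µg/mL kanamycin versus none on LB agar overnight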
Details: 37 °C
quantity measured: self-splicing fitness (ln)
Answer field: number only, no words.

These recorded examples may help you get a feel for the data.
AAUGAGCAAUAUUACGUGUA = -2.56
CAAUAGCAAUAUUACGAAGU = -2.64
CGAUAGCAAUAUUACGGCGG = 0.211
UGCCAGCAAUAUUACGCAGC = -2.15
GACCAGCAAUAUUACGUUCC = -1.76

Query :: Using the record for CUCAAGCAAUAUUACGUUAU , state its measured self-splicing fitness (ln).
Result :: -3.39

Query :: Look up self-splicing fitness (ln) of GGCUAGCAAUAUUACGGCGG and report it.
Result :: -0.684

----------
Experiment: self-splicing fitness, log relative to wild type (ln ratio); higher = more splicing; Tetrahymena group I intron in knt gene, E. coli kanamycin selection, DiMSum; sequences stand for … in CUCUCU…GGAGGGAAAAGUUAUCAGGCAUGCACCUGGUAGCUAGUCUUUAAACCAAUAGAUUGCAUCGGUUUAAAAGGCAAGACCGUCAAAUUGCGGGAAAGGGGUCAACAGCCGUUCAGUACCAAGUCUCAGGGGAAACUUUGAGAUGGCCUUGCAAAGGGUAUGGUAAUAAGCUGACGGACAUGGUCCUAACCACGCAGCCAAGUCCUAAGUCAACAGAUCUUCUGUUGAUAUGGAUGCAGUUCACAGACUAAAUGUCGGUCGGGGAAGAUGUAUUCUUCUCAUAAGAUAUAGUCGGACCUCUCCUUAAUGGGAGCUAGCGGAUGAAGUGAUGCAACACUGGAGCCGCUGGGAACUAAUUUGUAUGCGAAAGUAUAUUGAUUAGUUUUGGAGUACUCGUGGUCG
Conditions: 37 °C
# self-splicing fitness (ln) values compiled below
Enter the number alone.

Record excerpt, results attached:
CCUAAGCAAUAUUACGAAUG = -2.23
AUGGAGCAAUAUUACGCGUU = -3.05
GGGAAGCAAUAUUACGGUUG = -2.74
GCGGAGCAAUAUUACGACAA = -1.7
ACUCAGCAAUAUUACGGGUC = -2.2

Query :: State its self-splicing fitness (ln): CGCCAGCAAUAUUACGCUAG
Result :: -2.4

Query :: Assign self-splicing fitness (ln) to the following record: UUAUAGCAAUAUUACGAUCU
Result :: -1.17

Query :: Respond only with self-splicing fitness (ln) recorded for GAGCAGCAAUAUUACGUGAC
Result :: -1.64
